experimental system: human orexin-2 receptor (Homo sapiens (Human), UniProt O43614)
Sequence (O43614 whole entry): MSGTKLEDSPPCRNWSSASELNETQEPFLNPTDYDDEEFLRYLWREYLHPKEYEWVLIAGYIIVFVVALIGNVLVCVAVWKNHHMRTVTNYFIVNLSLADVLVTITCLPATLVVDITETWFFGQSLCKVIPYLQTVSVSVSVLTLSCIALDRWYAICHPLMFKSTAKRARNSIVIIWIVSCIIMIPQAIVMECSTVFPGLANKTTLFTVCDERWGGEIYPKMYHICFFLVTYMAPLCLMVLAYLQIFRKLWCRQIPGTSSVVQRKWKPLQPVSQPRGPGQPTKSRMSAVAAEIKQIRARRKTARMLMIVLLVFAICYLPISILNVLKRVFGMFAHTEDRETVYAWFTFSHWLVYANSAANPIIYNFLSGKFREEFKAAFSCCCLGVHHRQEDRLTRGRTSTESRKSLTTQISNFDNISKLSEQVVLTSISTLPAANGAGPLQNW
Exercise: state measured Ki for each of the molecules provided.
# answer = value followed by unit

Worked set:
Cc1nsc(-n2nccn2)c1C(=O)N1C[C@H](Oc2cc(C#N)ccn2)CC[C@H]1C 137 nM
COc1ccc(C(=O)N2C[C@H](Oc3cc(C#N)ccn3)CC[C@H]2C)c(-n2nccn2)n1 15 nM
C[C@@H]1CC[C@@H](Oc2cc(C#N)ccn2)CN1C(=O)c1ccsc1-c1ncccn1 2.1 nM

Now take the following molecule into account.
IN: Sample `C[C@@H]1CC[C@@H](Oc2cc(C#N)ccn2)CN1C(=O)c1cc(C(N)=O)ccc1-n1nccn1` — what was its Ki?
OUT: 134 nM
